Source of measurements: patent US20230364079A1

Assay Comment: Pharmacokinetic test, oral, SD rats
Format: in vivo
Measurement Context: rat, oral 10 mg/kg, plasma
Value Type: AUC(0-inf) (ng·h/mL)

COc1cccc(Oc2ccc(-c3nc(C4CCC(CO)OC4)n4ccnc(N)c34)cc2)c1 (stereo not shown): 3670
Nc1nccn2c(C3CCC(CO)OC3)nc(-c3ccc(Cc4ccccc4)cc3)c12 (stereo not shown): 2580

(P) COc1cccc(Oc2ccc(-c3nc(C45CCC(CO)(CC4)OC5)n4ccnc(N)c34)cc2)c1C#N
(Q) N#Cc1ccnc(NC(=O)c2ccc(-c3nc(C4CCC(CO)OC4)n4ccnc(N)c34)cc2)c1 (stereo not shown)
IN: Kindly identify which of P and Q has the larger recorded AUC(0-inf) value. Answer = label.
OUT: Q
(Q: 10400 ng·h/mL, P: 2010 ng·h/mL)

====

Assay Comment: Pharmacokinetic test, oral, SD rats
Format: in vivo
Measurement Context: rat, oral 10 mg/kg, plasma, read-out: T½ (converted)
Value Type: half-life (h)

(A) Nc1nccn2c(C3CCC(CO)OC3)nc(-c3ccc(C(F)(F)c4ccccc4)cc3)c12 (stereo not shown) [Compound 111]
(B) Nc1nccn2c(C3CCC(CO)OC3)nc(-c3ccc(Cc4ccccc4)cc3)c12 (stereo not shown) [Compound 106]
(C) COc1cccc(Oc2ccc(-c3nc(C4CCC(CO)OC4)n4ccnc(N)c34)cc2)c1C(F)(F)F (stereo not shown) [Compound 119]
IN: Sort the listed entries by half-life, smallest first. Form entry: labels listed in requested order.
OUT: C, B, A

(1) O=C(c1ccc(Oc2ccccc2)cc1Cl)c1c[nH]c2ncnc(N[C@@H]3CC[C@@H](CO)OC3)c12 [ARQ-531, reference compound]
(2) COc1cccc(Oc2ccc(-c3nc(C45CCC(CO)(CC4)OC5)n4ccnc(N)c34)cc2)c1C#N [Compound 116]
(3) CC#CC(=O)N1CC[C@@H](n2c(=O)n(-c3ccc(Oc4ccccc4)cc3)c3c(N)ncnc32)C1 [Tirabrutinib, reference compound]
IN: Order field: half-life | Direction: descending (largest first) Form entry: labels listed in requested order.
OUT: 1, 2, 3
(1: 3.98 h, 2: 1.35 h, 3: 0.33 h)

====

Assay Comment: Liver microsome metabolic stability test, rat
Assay type: in vitro ADME
Measurement Context: 60 min
Value Type: %Remaining (60 min) (%)

Cc1ccnc(NC(=O)c2ccc(-c3nc(C4CCC(CO)OC4)n4ccnc(N)c34)cc2)c1 (centres unmarked) [Compound 70]: 37.3

(a) COc1cccc(Oc2ccc(-c3nc(C4CCC(CO)OC4)n4ccnc(N)c34)cc2)c1F (centres unmarked) [Compound 5]
(b) Cc1cccc(Oc2ccc(-c3nc(C4CCC(CO)OC4)n4ccnc(N)c34)cc2)c1F (centres unmarked) [Compound 24]
IN: Between item a and item b , which reported %Remaining (60 min) is smaller? Answer = label.
OUT: b

(A) COc1ccccc1C(=O)NCc1ccc(-c2nn(C3CCC(CO)OC3)c3ncnc(N)c23)cc1 (centres unmarked) [Compound 60-A]
(B) Nc1nccn2c(C3CCC(CO)OC3)nc(-c3ccc(Oc4cccc(Cl)c4F)cc3)c12 (centres unmarked) [Compound 9]
(C) Nc1nccn2c(C3CCC(CO)OC3)nc(-c3ccc(Cc4ccccc4)cc3)c12 (centres unmarked) [Compound 106]
(D) Nc1nccn2c(C3CCC(CO)OC3)nc(-c3ccc(Oc4cccc(F)c4F)cc3)c12 (centres unmarked) [Compound 8]
IN: List the 4 entries from lowest %Remaining (60 min) to highest %Remaining (60 min) value. Form entry: labels listed in requested order.
OUT: B, D, C, A
(B: 3.2%, D: 13.6%, C: 39.1%, A: 69%)
